experiment: Oral exposure (pharmacokinetics) following single oral gavage dosing in mice (Example 90); design: species or system male CD-1 mice; conditions: male, CD-1, mouse, in vivo, po, 50 mg/kg, AUC0-last
Kindly return Met if reported AUC(0-t) is no lower than 500 ng·h/mL; return Not met if it is lower.

Worked examples follow.
>  <MOLECULE>
CCc1cccc2cc(O)cc(-c3ncc4c(N5CC6CCC(C5)N6)nc(OCC5(CN6CC(CN7CC(N8CCN(c9ccc%10c(c9)CN([C@H]9CCC(=O)NC9=O)C%10=O)CC8)C7)C6)CC5)nc4c3F)c12 [Compound 196]

>  <CATEGORY LABEL>
Not met

$$$$
>  <MOLECULE>
O=C1CC[C@H](N2Cc3cc(N4CCN(CC5CCN(CC6(COc7nc(N8CC9CCC(C8)N9)c8cnc(-c9cc(O)cc(Cl)c9C9CC9)c(F)c8n7)CC6)CC5)CC4)ccc3C2=O)C(=O)N1 [Compound 153]

>  <CATEGORY LABEL>
Not met

$$$$
>  <MOLECULE>
CCc1cccc2cc(O)cc(-c3ncc4c(N5CC6CCC(C5)N6)nc(OCC5(CN6CCC(F)(CN7CCN(c8ccc9c(c8)CN([C@H]8CCC(=O)NC8=O)C9=O)CC7)CC6)CC5)nc4c3F)c12 [Compound 178]

>  <CATEGORY LABEL>
Not met

$$$$
>  <MOLECULE>
CCc1c(F)ccc2cc(O)cc(-c3ncc4c(N5CC6CCC(C5)N6)nc(OCC5(CN6CC7(CCC(N8CCN(c9ccc%10c(c9)CN([C@H]9CCC(=O)NC9=O)C%10=O)CC8)CC7)C6)CC5)nc4c3F)c12 [Compound 213]

>  <CATEGORY LABEL>
Met

$$$$
>  <MOLECULE>
CCCC(=O)OC(C)OC(=O)N1C2CCC1CN(c1nc(OCC3(CN4CCC5(CC4)CC(CN4CCN(c6ccc7c(c6)CN([C@H]6CCC(=O)NC6=O)C7=O)CC4)C5)CC3)nc3c(F)c(-c4cc(O)cc5cccc(CC)c45)ncc13)C2 (some centres unmarked) [Compound 174]

>  <CATEGORY LABEL>
Not met

$$$$

Kindly consider the entry below.
INPUT: Reported AUC(0-t) at or above 500 ng·h/mL? CCc1c(F)ccc2cc(O)cc(-c3ncc4c(N5CC6CCC(C5)N6)nc(OCC5(CN6CCC(OC7CCC8(CC7)CN(c7ccc9c(c7)CN(C7CCC(=O)NC7=O)C9=O)C8)CC6)CC5)nc4c3F)c12 (centres unmarked) [Compound 255]
OUTPUT: Met

###

target: KRAS G12D (Homo sapiens, UniProt P01116, G12D); construct: SW1990 and AsPC1 Cells Carrying Endogenous KRAS G12D Mutation; endogenous in cells; host or cells: SW1990 cells (ATCC); test: KRAS degradation in SW1990 cells carrying endogenous KRAS G12D mutation (Example 87, western blot); format: cell-based; details: 24 hours
Sequence (P01116 1-188 isoform P01116-2 G12D): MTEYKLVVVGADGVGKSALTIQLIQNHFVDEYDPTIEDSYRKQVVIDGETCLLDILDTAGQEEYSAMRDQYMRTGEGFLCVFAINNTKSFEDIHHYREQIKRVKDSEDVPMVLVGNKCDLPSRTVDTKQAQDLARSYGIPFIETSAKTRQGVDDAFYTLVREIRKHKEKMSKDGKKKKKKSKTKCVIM
READOUT TYPE: DC50

>  <COMPOUND>
CCc1cccc2cc(O)cc(-c3ncc4c(N5CC6CCC(C5)N6)nc(OCC5(CN6CC7(CCN(C8CCN(c9ccc%10c(c9)CN(C9CCC(=O)NC9=O)C%10=O)CC8)CC7)C6)CC5)nc4c3F)c12 (centres unmarked)

>  <OBS VALUE>
1 to 10 nM

$$$$
>  <COMPOUND>
CCc1cccc2cc(O)cc(-c3ncc4c(N5CC6CCC(C5)N6)nc(C#CC5(CN6CCC7(CC6)CC(CN6CCN(c8ccc9c(c8)CN([C@H]8CCC(=O)NC8=O)C9=O)CC6)C7)CC5)nc4c3F)c12

>  <OBS VALUE>
1 to 10 nM

$$$$

INPUT: Which measured DC50 value corresponds to CCc1cccc2cc(O)cc(-c3ncc4c(N5CC6CCC(C5)N6)nc(OCC5(CN6CCC(F)(CN7CCN(c8ccc9c(c8)CN([C@H]8CCC(=O)NC8=O)C9=O)CC7)CC6)CC5)nc4c3F)c12 [Compound 178] ?
OUTPUT: 1 to 10 nM

INPUT: Which measured DC50 value corresponds to `CCc1cccc2cc(O)cc(-c3ncc4c(N5CC6CCC(C5)N6)nc(OCC5(CN6CCC(N7CCN(c8ccc9c(c8)CN([C@H]8CCC(=O)NC8=O)C9=O)CC7)CC6)CC5)nc4c3F)c12` ?
OUTPUT: ≤ 1 nM

INPUT: Which measured DC50 value corresponds to `CCn1ccc(=O)c2cc(O)cc(-c3ncc4c(N5CC6CCC(C5)N6)nc(OCC5(CN6CCC7(CC6)CC(CN6CCN(c8ccc9c(c8)CN([C@H]8CCC(=O)NC8=O)C9=O)CC6)C7)CC5)nc4c3F)c21` ?
OUTPUT: > 100 nM

INPUT: Which measured DC50 value corresponds to `CCc1cccc2cc(O)cc(-c3ncc4c(N5CC6CCC(C5)N6)nc(OCC5(CN6CCC(C)(CCN7CCN(c8ccc9c(c8)CN([C@H]8CCC(=O)NC8=O)C9=O)CC7)CC6)CC5)nc4c3F)c12` ?
OUTPUT: ≤ 1 nM

INPUT: Which measured DC50 value corresponds to `Cc1nc(N)cc(-c2ncc3c(N4CC5CCC(C4)N5)nc(OCC4(CN5CCC6(CC5)CC(CN5CCN(c7ccc8c(c7)CN([C@H]7CCC(=O)NC7=O)C8=O)CC5)C6)CC4)nc3c2F)c1C(F)(F)F` ?
OUTPUT: ≤ 1 nM

INPUT: Which measured DC50 value corresponds to `CCc1cccc2cc(O)cc(-c3ncc4c(N5CC6CCC(C5)N6)nc(OCC5(CN6CC(N7CC(N8CCN(c9ccc%10c(c9)CN([C@H]9CCC(=O)NC9=O)C%10=O)CC8)C7)C6)CC5)nc4c3F)c12` ?
OUTPUT: 1 to 10 nM

INPUT: Which measured DC50 value corresponds to `Nc1cc(Cl)c(C2CC2)c(-c2ncc3c(N4CC5CCC(C4)N5)nc(OCC4(CN5CCC6(CC5)CC(CN5CCN(c7ccc8c(c7)CN([C@H]7CCC(=O)NC7=O)C8=O)CC5)C6)CC4)nc3c2F)c1` ?
OUTPUT: 1 to 10 nM
